Source of measurements: the supplement of paper PMC10567573

B1: CSNK1G1 (parent)
chain: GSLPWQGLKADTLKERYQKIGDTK

Variants of: B1
Assay: protein stability index of a GFP-peptide fusion (GPS, HEK-293T) (PSI 1-6); higher = more stable;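 also: lentivirally expressed fusions sorted by FACS into six bins by GFP to DsRed ratio, PSI derived from sequencing read proportions per bin multiplied by bin number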
Details: c terminus: a fixed tail appended
MEASUREMENT_NAME: protein stability index
Output: the number by itself.

For record "K14T" the listed protein stability index is 4.09

For record "G1S" the listed protein stability index is 3.97

For record "Q6M" the listed protein stability index is 4.07

For record "T23M" the listed protein stability index is 3.97

For record "E15P" the listed protein stability index is 3.97

For record "K24N" the listed protein stability index is 3.91
